test: Antiproliferative activity against mouse B16-F1 cells after 48 hrs by SRB assay; assay type: functional, cell-based; conditions: B16-F1, 48 h
recorded endpoint: pIC50
Answers are plain numbers, as −log10 of the molar value.

Examples with their reported pIC50 follow.
>  <compound>
CCCCCCCCCCCCCCCCNC[C@@H]1CSC(c2ccc(NC(C)=O)cc2)N1 (mixture of isomers)

>  <reported>
4.92

$$$$
>  <compound>
CCCCCCCCCCCCCCCCNC(=O)[C@@H]1CSC(c2ccccc2NC(C)=O)N1 (mixture of isomers)

>  <reported>
5.10

$$$$

Then there is this compound:
QUERY: Find the recorded pIC50 belonging to CCCCCCCCC/C=C/CCCCCCCNC(=O)[C@@H]1CSC(c2ccccc2)N1 (mixture of isomers) and report it.
RESULT: 5.00
